Target: Serine protease hepsin (Homo sapiens, UniProt P05981)
Sequence (P05981 1-162 limits assumed): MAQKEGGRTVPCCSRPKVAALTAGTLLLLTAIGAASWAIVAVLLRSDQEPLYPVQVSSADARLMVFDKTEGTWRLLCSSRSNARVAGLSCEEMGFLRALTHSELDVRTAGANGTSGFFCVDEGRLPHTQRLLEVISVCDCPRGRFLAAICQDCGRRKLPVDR
Sequence (P05981 163-417 limits assumed): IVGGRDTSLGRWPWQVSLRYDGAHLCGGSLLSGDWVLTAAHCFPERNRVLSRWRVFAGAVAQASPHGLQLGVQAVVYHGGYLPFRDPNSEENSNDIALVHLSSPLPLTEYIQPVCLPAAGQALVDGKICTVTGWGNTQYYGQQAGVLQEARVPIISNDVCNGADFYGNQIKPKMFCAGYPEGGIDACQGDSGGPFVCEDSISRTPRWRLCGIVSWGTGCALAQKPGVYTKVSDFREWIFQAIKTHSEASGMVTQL
Test: Inhibition of recombinant human hepsin using Boc-QAR-AMC as substrate preincubated for 30 mins followed by substrate addition by fluorescence assay
IC50 strictly less than 9 µM = y. Otherwise n.

Please check: IC50 for `N=C(N)c1ccc2[nH]c(-c3cc(-c4ccc(Cl)cc4)ccc3O)cc2c1` , strictly under 9 µM or not?
n

Criterion: IC50 strictly below 9 µM. Is it met by `N=C(N)c1ccc2[nH]c(-c3cc(-c4cccs4)ccc3O)cc2c1` ?
n

Please state whether IC50 is below 9 µM for `N=C(N)c1ccc2[nH]c(-c3cc(-c4ccc(C(F)(F)F)cc4)ccc3O)cc2c1`
n

Is it true that IC50 reported for `N=C(N)c1ccc2[nH]c(-c3cc(-c4ccc(CN)cc4)ccc3O)cc2c1` is less than 9 µM?
n

Problem: For the compound `N=C(N)c1ccc2[nH]c(-c3cc(-c4ccc(F)cc4)ccc3O)cc2c1` , is IC50 under 9 µM?
y

Regarding `N=C(N)c1ccc2[nH]c(-c3ccccc3O)cc2c1` , kindly confirm whether its IC50 is beneath 9 µM.
n

Lab log: compare recorded IC50 with 9 µM; is it strictly lower for `CC(C)(C)OC(=O)NCc1ccc(-c2ccc(O)c(-c3cc4cc(C(=N)N)ccc4[nH]3)c2)cc1` ?
n

IC50 strictly < 9 µM for this compound? `COc1ccc(-c2ccc(O)c(-c3cc4cc(C(=N)N)ccc4[nH]3)c2)cc1`
y
